# Test system: Nucleic Acid
# assay_protocol: Compound was evaluated for its ability of alkylation of DNA
# Assay type: nucleic-acid assay
# condition_summary: Bos taurus
assay_metric: Alkylation (%)

smiles	assay_metric	reported_result
CN(C)CCCNC(=O)c1cc(NC(=O)c2cc(NC(=O)c3ccc(N(CCCl)CCCl)cc3)cn2CCCCCCCCn2cc(NC(=O)c3ccc(N(CCCl)CCCl)cc3)cc2C(=O)Nc2cc(C(=O)NCCCN(C)C)n(C)c2)cn1C	Alkylation	7.1
CN(C)CCCNC(=O)c1cc(NC(=O)c2cc(NC(=O)c3ccc(N(CCCl)CCCl)cc3)cn2CCCCCCCCCn2cc(NC(=O)c3ccc(N(CCCl)CCCl)cc3)cc2C(=O)Nc2cc(C(=O)NCCCN(C)C)n(C)c2)cn1C	Alkylation	6.7
CN(C)CCCNC(=O)c1cc(NC(=O)c2cc(NC(=O)c3ccc(N(CCCl)CCCl)cc3)cn2CCCCCCCCCCCn2cc(NC(=O)c3ccc(N(CCCl)CCCl)cc3)cc2C(=O)Nc2cc(C(=O)NCCCN(C)C)n(C)c2)cn1C	Alkylation	12
CN(C)CCCNC(=O)c1cc(NC(=O)c2cc(NC(=O)c3ccc(N(CCCl)CCCl)cc3)cn2CCCCCCCCCCn2cc(NC(=O)c3ccc(N(CCCl)CCCl)cc3)cc2C(=O)Nc2cc(C(=O)NCCCN(C)C)n(C)c2)cn1C	Alkylation	7.3
CN(C)CCCNC(=O)c1cc(NC(=O)c2cc(NC(=O)c3ccc(N(CCCl)CCCl)cc3)cn2C)cn1C	Alkylation	11

----------
# Tested on: Nucleic Acid
# assay_protocol: Compound was evaluated for binding affinity to calf thymus DNA using ethidium displacement assay
# Type: nucleic-acid assay
# condition_summary: Bos taurus
Consider the following compounds and their measured Kb readings.

smiles	Kb / M⁻¹
CN(C)CCCNC(=O)c1cc(NC(=O)c2cc(NC(=O)c3ccc(N(CCCl)CCCl)cc3)cn2CCCCCCCCCCn2cc(NC(=O)c3ccc(N(CCCl)CCCl)cc3)cc2C(=O)Nc2cc(C(=O)NCCCN(C)C)n(C)c2)cn1C	2.74e+06
CN(C)CCCNC(=O)c1cc(NC(=O)c2cc(NC(=O)c3ccc(N(CCCl)CCCl)cc3)cn2CCCCCCCCn2cc(NC(=O)c3ccc(N(CCCl)CCCl)cc3)cc2C(=O)Nc2cc(C(=O)NCCCN(C)C)n(C)c2)cn1C	5.6e+06
CN(C)CCCNC(=O)c1cc(NC(=O)c2cc(NC(=O)c3ccc(N(CCCl)CCCl)cc3)cn2CCCCCCCCCCCn2cc(NC(=O)c3ccc(N(CCCl)CCCl)cc3)cc2C(=O)Nc2cc(C(=O)NCCCN(C)C)n(C)c2)cn1C	3.42e+06

----------
Consider the following molecules and their measured Kb readings.
# Tested on: Nucleic Acid
# assay_protocol: Compound was evaluated for binding affinity to calf thymus DNA using ethidium displacement assay
# Type: nucleic-acid assay
# condition_summary: Bos taurus
assay_metric: Kb (M⁻¹)

smiles	tested_on	reported_result
CN(C)CCCNC(=O)c1cc(NC(=O)c2cc(NC(=O)c3ccc(N(CCCl)CCCl)cc3)cn2CCCCCCCCCCCCn2cc(NC(=O)c3ccc(N(CCCl)CCCl)cc3)cc2C(=O)Nc2cc(C(=O)NCCCN(C)C)n(C)c2)cn1C	Nucleic Acid	1.73e+06
CN(C)CCCNC(=O)c1cc(NC(=O)c2cc(NC(=O)c3ccc(N(CCCl)CCCl)cc3)cn2CCCCCCCCCn2cc(NC(=O)c3ccc(N(CCCl)CCCl)cc3)cc2C(=O)Nc2cc(C(=O)NCCCN(C)C)n(C)c2)cn1C	Nucleic Acid	3.2e+06
CN(C)CCCNC(=O)c1cc(NC(=O)c2cc(NC(=O)c3ccc(N(CCCl)CCCl)cc3)cn2C)cn1C	Nucleic Acid	1.07e+06

The values you see were collected from ChEMBL document CHEMBL1128615.
